Catalogue of pIC50 readings, one per entry.
- Test system: MCF7
- procedure-details: Cytotoxicity against human MCF7 cells assessed as reduction in cell viability incubated for 1 hr by MTT assay
- Assay type: functional, cell-based
- measurement-conditions: MCF7, 1 h
pIC50: −log10 of the molar value.
readout-type: pIC50

- substance: "H-KELKLLKKLLKLLK-OH"
  measured-value: 4.84
- substance: "H-KQLKLLKKLLKLLK-OH"
  measured-value: 5.05
- substance: "H-KKLKLLKKLLKLLK-OH"
  measured-value: 5.21
- substance: "H-KLLKLLKKLLKLLK-OH"
  measured-value: 5.37

====

- procedure-details: Selectivity index, ratio of HC10 for induction of hemolysis in human erythrocytes assessed as hemoglobin release incubated for 2 hrs by UV absorbance based method to IC50 for cytotoxicity against human HL60 cells assessed as reduction in cell viability incubated for 1 hr by MTT assay

- substance: "H-KLLKLLKKLLKLLK-OH"
  Selectivity Index: 0.21
- substance: "H-KELKLLKKLLKLLK-OH"
  Selectivity Index: 18.7
- substance: "H-KQLKLLKKLLKLLK-OH"
  Selectivity Index: 17.8
- substance: "H-KKLKLLKKLLKLLK-OH"
  Selectivity Index: 11.5
